- MEASURED_TARGET: T1, human IL-2Rγ (common cytokine receptor γ-chain) (human, UniProt P31785 23-262, limits assumed)
- T1 construct: Recombinant protein coated on the plate or immobilised on a CM5 chip; also called hu IL-2R; CD132
- T1 sequence: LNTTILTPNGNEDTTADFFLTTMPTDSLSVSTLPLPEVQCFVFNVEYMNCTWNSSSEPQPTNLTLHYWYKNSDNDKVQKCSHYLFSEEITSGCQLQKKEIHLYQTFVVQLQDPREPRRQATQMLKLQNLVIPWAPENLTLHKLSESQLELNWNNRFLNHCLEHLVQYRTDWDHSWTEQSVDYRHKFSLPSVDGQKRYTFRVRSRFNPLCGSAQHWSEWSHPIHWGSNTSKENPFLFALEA
- MEASUREMENT_PROTOCOL: SPR off-rate ranking, periplasmic extract on immobilised protein

BINDER	koff, s⁻¹
FJ1427_P035MP04F03 (VHH, VHH in periplasmic extract; also called clone nr; 310) VHH: QVQLVESGGGLVQAGGSLRLSCAASGRTLSRNAMGWFRQAPGKEREFVAADSWGGDTFYADSVEGRFTFSRDNAKNAVYLQMNSLQPEDTAVYYCAGAPTSFATTAYSSSNSYRYWGQGTQVTVSS	0.00074
FJ1427_P035MP04E02 (VHH, VHH in periplasmic extract; also called clone nr; 301) VHH: QVQLVESGGGWVQVGESLRLSCAPSGRTFVSGIMGWFRQTPGKEREFVARIILNNNSTRYTDSVKGRFTISRDSAKNTMYLQMNTLRPEDTAVYYCAARDRYGSGNSLSPSAYDYWGQGTQVTVSS	0.00652
FJ1427_P035MP04H08 (VHH, VHH in periplasmic extract; also called clone nr) VHH: EVQLVESGGGLVQAGESLRLSCAASGPTASRVAVAWFRQVPGKEREFVAVVNRPGTMTKYADSVKGRFTISRDSAKNTVYLQMNSLKPEDTAVYYCAADSVPYGRPYYFQTSAGNYDYWGQGTQVTVSS	0.048
FJ1427_P035MP04F09 (VHH, VHH in periplasmic extract; also called clone nr) VHH: QVQLVESGGGWVQVGESLRLSCAPSGRTFVRGIMGWFRQAPGKEREFVARIILNNNSTRYTDSVKGRFTISRDSAKNTMWLQMDSLRPEDTAVYYCAARDRYGSGNSLSPSAYDYWGQGTQVTVSS	0.00795
FJ1427_P035MP04D11 (VHH, VHH in periplasmic extract; also called clone nr) VHH: EVQLVESGGGLVQAGGSLRLSCAASGRTFGAVAVGWFRQVPGKEREFVAAINRSGSATKYADSVKGRFTISRDNAESPVFLQMNSLKPEDTAVYYCAADSLPYGRPYYFQTSAGEYDYWGQGTQVTVSS	0.0401
FJ1427_P035MP04F02 (VHH, VHH in periplasmic extract; also called clone nr) VHH: QLQLVESGGGLVQAGGSLTLSCAASGRTFSRDVVGWFRQAPGKEREFVASISRSGDGTFYTDSVKGRFTISSRDNAKNTVLLQMNSLKVEDTAVYYCAAGDGWSTYDYWGQGTQVTVSS	0.0026
FJ1427_P035MP04B02 (VHH, VHH in periplasmic extract; also called clone nr) VHH: QVQLVESGGGWVQVGESLRLSCAPSGRTFVSGIMGWFRQTPGKEREFVARIILNNNSTRYTDSVKGRFTISRDSAKNTMYLQMNTLRPEDTAVYYCAARDRYGSGNSLSPSAYDYWGQGTQVTVSS	0.0285
37-MP07F09 (VHH, VHH in periplasmic extract; also called FJ1427_P035MP07F09; clone nr) VHH: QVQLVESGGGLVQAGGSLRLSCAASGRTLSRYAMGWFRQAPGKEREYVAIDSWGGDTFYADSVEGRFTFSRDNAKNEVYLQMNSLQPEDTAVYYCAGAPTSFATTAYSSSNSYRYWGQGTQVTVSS	0.00126
FJ1427_P035MP04C01 (VHH, VHH in periplasmic extract; also called clone nr) VHH: QVQLVESGGGLVQAGGSLTLSCAASGRTFSTDVVGWFRQAPGKEREFVASISRSGDGIYYDDSVKGRFTISRNNAWNTVNLQMNNLKVEDTAVYYCAAGDGWSTYDYWGQGTQVTVSS	0.00124
36-MP07F02 (VHH, VHH in periplasmic extract; also called FJ1427_P035MP07F02; clone nr; 590) VHH: QVQLVESGGGLVQAGGSLRLSCAASGRTLSRYAMGWFRQAPGSEREFVAASSWGGDTFYADSVEGRFTFSRDNAKNAVYLQMNSLQPEDTAAYYCAAAPTSFPTTAYSSSNSYAYWGQGTQVTVSS	0.00331
FJ1427_P035MP04B10 (VHH, VHH in periplasmic extract; also called clone nr) VHH: EVQLVESGGGWVQVGESLRLSCAPSGRTFVSGIMGWFRQAPGKEREFVARIILNNNSTRYIDSVKGRFTISRDSAKNTMYLQMDSLRPEDTAVYYCAARDRYGSGNSLSPSAYDYWGQGTQVTVSL	0.00749
FJ1427_P035MP04A06 (VHH, VHH in periplasmic extract; also called clone nr) VHH: QVQLVESGGGLVQPGGSLRLSCAASGRTLSRYAMGWFRQAPGKEREFVTANSWGGDTYYADSVQGRFTFSRDNAKNTVYLQMNSLQPEDTAVYYCAAAPTSFATTAYSSSNSYAYWGQGTQVTVSS	0.00283
FJ1427_P035MP04A07 (VHH, VHH in periplasmic extract; also called clone nr) VHH: QLQLVESGGGWVQVGESLRLSCAPSGRTFVSGIMGWFRQAPGKEREFVARIILNNNSTRYIDSVKGRFTISRDSAKNTMYLQMDSLRPEDTAVYYCAARDRYGSGNSLSPSAYDYWGQGTQVTVSS	0.0196
FJ1427_P035MP04C04 (VHH, VHH in periplasmic extract; also called clone nr) VHH: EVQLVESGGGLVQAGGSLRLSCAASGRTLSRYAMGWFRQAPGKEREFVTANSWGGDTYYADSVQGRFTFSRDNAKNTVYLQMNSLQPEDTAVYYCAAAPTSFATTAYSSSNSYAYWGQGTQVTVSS	0.00214
FJ1427_P035MP04D03 (VHH, VHH in periplasmic extract; also called clone nr) VHH: EVQLVESGGGLVQAEGSLRLSCAASGRTLSRYAMGWFRQAPGKEREFVTANSWGGDTYYADSVQGRFTFSRDNAKNTVYLQMNSLQPEDTAVYYCAAAPTSFATTAYSSSNSYAYWGQGTQVTVSS	0.00143
